B1: SOAT1 (parent)
chain: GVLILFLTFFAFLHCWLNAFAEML

Variants of: B1
Assay: protein stability index of a GFP-peptide fusion (GPS, HEK-293T) (PSI 1-6); higher = more stable;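 note: lentivirally expressed fusions sorted by FACS into six bins by GFP to DsRed ratio, PSI derived from sequencing read proportions per bin multiplied by bin number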
Conditions: c terminus: a fixed tail appended
propertyMeasured: protein stability index

Sample answers from the record:
GVLILFLTFFAFLHCWRNAFAEML [L17R]	3.44
GVLILFLTFFALLHCWLNAFAEML [F12L]	2.09
GVLILFLTFFWFLHCWLNAFAEML [A11W]	1.64
GVLILFLTVFAFLHCWLNAFAEML [F9V]	3.43
GVLILFLTFFAFLHCWWNAFAEML [L17W]	2.44
GVLILFLFFFAFLHCWLNAFAEML [T8F]	3.81

# query: protein stability index of entry GVLILFLTFFAFLHHWLNAFAEML [C15H]
1.99

# query: protein stability index of entry GVLILFLTFFAFSHCWLNAFAEML [L13S]
3.65

# query: protein stability index of entry GVLILFLTFFMFLHCWLNAFAEML [A11M]
3.5
